target: T1, human tumor necrosis factor-α (rHuTNF-alpha, Biosource) (human, UniProt P01375 77-233); test: solid-phase ELISA, Fab lysate on coated rHuTNF-alpha
T1 construct: Bought recombinant protein coated on ELISA plates; The TNFα of the Biacore assay is not described further; also called TNFα; human TNFα
T1 sequence (P01375 77-233 limits assumed): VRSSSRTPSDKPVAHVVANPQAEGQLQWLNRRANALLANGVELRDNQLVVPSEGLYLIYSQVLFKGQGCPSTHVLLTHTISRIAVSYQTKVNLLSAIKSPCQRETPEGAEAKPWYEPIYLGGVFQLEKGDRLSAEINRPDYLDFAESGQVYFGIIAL
MEASUREMENT_NAME: binding result

SEQ ID NO 51 (Fab, V domains shown, Fab, E. coli lysate) VH: EVQLTESGGGLVQPGGSLRLSCRASGFIFSNHYMNWVRQAPGKGLEWIGEIRSKSSYSATSYAESVKGRFIISRDGNKNDLTLEMNSLKTEDTAEYYCARNYYGSTYDYWGQGTLVTVS VL: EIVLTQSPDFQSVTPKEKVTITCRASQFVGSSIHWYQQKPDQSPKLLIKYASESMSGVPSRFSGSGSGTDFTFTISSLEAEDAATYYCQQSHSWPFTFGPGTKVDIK
binds
SEQ ID NO 158 (Fab, V domains shown, Fab, E. coli lysate) VH: EVQLVESGGGLVQPGGSLRLSCRASQFIFSNHWMNWVRQAPGKGLEWIGEIRSKSIYGATHYAESVKGRFIISRDDNKNDLYLEMNSLKTEDTAEYYCARNYYGSTPDYWGQGTLVTVS VL: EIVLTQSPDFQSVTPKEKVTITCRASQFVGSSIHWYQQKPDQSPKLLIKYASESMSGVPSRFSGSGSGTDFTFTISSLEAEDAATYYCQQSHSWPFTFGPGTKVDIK
binds
SEQ ID NO 20 (Fab, V domains shown, Fab, E. coli lysate) VH: EVQLVESGGGLVQPGGSLRLSCRASGFTFSNHYMNWVRQAPGKGLEWIGEIRSKSSNSATSYAESVKGRFIISRDDNGNDLTLEMNSLKTEDTAEYYCAQNYYGSTPDYWGQGTLVTVS VL: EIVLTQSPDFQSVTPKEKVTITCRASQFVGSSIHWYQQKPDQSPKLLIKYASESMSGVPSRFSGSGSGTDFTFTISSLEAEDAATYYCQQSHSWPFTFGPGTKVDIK
binds
